# tested.on: Progesterone receptor (Homo sapiens) (UniProt P06401)
# Sequence (P06401 whole entry, looked up): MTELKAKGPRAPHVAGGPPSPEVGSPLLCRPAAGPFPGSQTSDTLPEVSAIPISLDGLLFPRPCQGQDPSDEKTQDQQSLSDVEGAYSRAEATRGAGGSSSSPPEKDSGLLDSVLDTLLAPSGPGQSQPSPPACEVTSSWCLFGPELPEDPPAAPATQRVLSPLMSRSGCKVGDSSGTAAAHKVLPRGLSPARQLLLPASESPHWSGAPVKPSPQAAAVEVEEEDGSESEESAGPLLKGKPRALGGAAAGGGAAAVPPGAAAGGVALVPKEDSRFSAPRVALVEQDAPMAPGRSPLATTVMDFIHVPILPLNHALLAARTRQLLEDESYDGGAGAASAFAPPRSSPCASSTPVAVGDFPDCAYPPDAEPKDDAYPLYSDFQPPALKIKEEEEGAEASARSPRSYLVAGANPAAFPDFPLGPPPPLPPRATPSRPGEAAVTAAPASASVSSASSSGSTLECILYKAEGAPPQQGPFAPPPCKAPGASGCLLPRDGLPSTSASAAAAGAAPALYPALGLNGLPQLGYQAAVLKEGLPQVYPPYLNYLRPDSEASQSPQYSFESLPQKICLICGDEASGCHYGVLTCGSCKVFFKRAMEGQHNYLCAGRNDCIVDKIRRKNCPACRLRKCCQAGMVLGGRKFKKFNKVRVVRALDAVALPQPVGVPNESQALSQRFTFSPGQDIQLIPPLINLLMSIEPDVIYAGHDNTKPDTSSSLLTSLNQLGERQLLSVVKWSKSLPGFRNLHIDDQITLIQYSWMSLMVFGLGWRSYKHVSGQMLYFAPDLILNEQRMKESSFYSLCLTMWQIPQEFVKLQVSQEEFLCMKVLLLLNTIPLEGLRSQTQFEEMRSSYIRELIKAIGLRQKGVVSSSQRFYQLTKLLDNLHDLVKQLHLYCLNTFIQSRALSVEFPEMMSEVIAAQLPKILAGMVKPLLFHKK
# measurement.protocol: qHTS assay to identify small molecule antagonists of the progesterone receptor (PR) signaling pathway (AID 1346795); also: potency is read from the fitted curve at half-maximal effect
# setup.conditions: PR-UAS-bla HEK293T, beta-lactamase FRET ratio, 16 h; series mostly up to 92.4 µM
Records with an inconclusive call do not appear. Activity calls are given as the source filed them. Calls follow the shape of the dose curve; as a rule, active = well fitted inhibition curve with a large enough effect in the signal ratio in the repeat runs (not every such curve was filed as active); inconclusive = weak or mixed curves; inactive = flat fitted curve, though single readings scatter; the % refers to the signal ratio.
assay.metric: Potency

Below: 10 compounds and their reported Potency.
Please give the measured Potency for this compound: CC(C)C(=O)OCC(C)(C)C(OC(=O)C(C)C)C(C)C (stereo not given)
inactive

And what about the compound `Oc1cc(Cl)ccc1Cl` ?
inactive

And what about the compound `Oc1cc(Cl)ccc1Oc1ccc(Cl)cc1Cl` ?
13.3 µM (active)

And what about the compound CCOC(=O)C(C)OC(=O)c1cc(Oc2ccc(C(F)(F)F)cc2Cl)ccc1[N+](=O)[O-] (stereo not given) ?
30.5 µM (active)

And what about the compound `C=CCc1ccc2c(c1)OCO2` ?
inactive

And what about the compound `CCOP(=S)(OCC)O/N=C(\C#N)c1ccccc1` ?
13.3 µM (active)

And what about the compound `O=C1C=CC(=O)C=C1` ?
inactive

And what about the compound `O=P(O)(O)CCCl` ?
inactive

And what about the compound `c1ccc(NNc2ccccc2)cc1` ?
inactive

And what about the compound `CCC(C)(C)c1ccc(O)cc1` ?
inactive

With those in mind, consider the next compound.
Please give the measured Potency for this compound: `c1nc[nH]n1`
inactive

----------
# tested.on: Peroxisome proliferator-activated receptor delta (Homo sapiens)
# measurement.protocol: qHTS assay to identify small molecule antagonists of the peroxisome proliferator-activated receptor delta (PPARd) signaling pathway (AID 743215);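 also: cells stimulated with agonist L165041 at 300 nM final during compound exposure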
# setup.conditions: HEK293H PPARd-UAS-bla, beta-lactamase FRET ratio, antagonist, 17 h; series mostly up to 62 µM
Inconclusive results are not listed. Calls of active or inactive are those of the source. The call rests on the fitted dose curve; in most records, active means well fitted inhibition curve with a large enough effect in the signal ratio in the repeat runs (not every such curve was filed as active); inconclusive means weak or mixed curves, or effect the other way; inactive means no such curve, though single readings can be large or run the other way; the % refers to the signal ratio.
assay.metric: outcome

Please give the measured outcome for this compound: `NC(=S)Nc1ccccc1`
inactive

And what about the compound `CCCCCCCCOC(=O)c1ccccc1C(=O)OCCCCCCCC` ?
inactive

And what about the compound `O=P(O)(O)CCCl` ?
inactive

----------
# measurement.protocol: A CellTox Green Cytotoxicity Assay to monitor cytotoxicity in HepG2 cells - 8 hour (AID 1224890); also: nearly all actives have a fitted effect of over 45% in size
# setup.conditions: CellTox Green fluorescence; series mostly up to 76.8 µM
Results filed as inconclusive are left out. Activity calls are given as the source filed them. The call rests on the fitted dose curve; in most records, active means well fitted activation curve with a large enough effect in the repeat runs; inconclusive means weak or mixed curves; inactive means flat fitted curve, though single readings scatter.
Give your call using only these classes: true for active, false for inactive

Recorded test call requested for `CC(C)NC(C)C`
false

And what about the compound `O=[N+]([O-])c1c(Cl)c(Cl)c(Cl)c(Cl)c1Cl` ?
false

And what about the compound `S=C1NCCN1` ?
false

And what about the compound `CCCCCCCCCCCOC(=O)c1ccccc1C(=O)OCCCCCCCCCCC` ?
false

And what about the compound `COP(=S)(OC)Oc1ccc([N+](=O)[O-])cc1` ?
false

And what about the compound `COC(=O)c1sccc1S(=O)(=O)NC(=O)Nc1nc(C)nc(OC)n1` ?
false

And what about the compound `O=S(=O)(Oc1ccc(Cl)cc1)c1ccc(Cl)cc1` ?
false

And what about the compound `O=P(Oc1ccccc1)(Oc1ccccc1)Oc1ccccc1` ?
false

And what about the compound CC(O)CCO (stereo not drawn) ?
false

And what about the compound `Nc1ccc(-c2ccc(N)c(N)c2)cc1N` ?
false

And what about the compound `Cc1cc(Cl)ccc1OCCCC(=O)O` ?
false

And what about the compound CC(C)=CC1C(C(=O)OCc2coc(Cc3ccccc3)c2)C1(C)C (stereo not drawn) ?
false

And what about the compound `O=C(CCl)c1ccccc1` ?
false

And what about the compound `Cc1ccc2c(c1N)C(=O)c1ccccc1C2=O` ?
false

And what about the compound `Cc1ccccc1[N+](=O)[O-]` ?
false

And what about the compound `Clc1nc(Cl)nc(Cl)n1` ?
false

And what about the compound `c1ccc(N=Nc2ccccc2)cc1` ?
false

And what about the compound `CC(C)N(C(=O)SCC(Cl)=C(Cl)Cl)C(C)C` ?
false

And what about the compound `c1ccc(NNc2ccccc2)cc1` ?
false

And what about the compound `Nc1c(Cl)cc([N+](=O)[O-])cc1Cl` ?
false

And what about the compound `CCN(CC)C(=O)SCc1ccc(Cl)cc1` ?
false

And what about the compound `CCCCCCCCOC(=O)c1ccccc1C(=O)OCCCCCCCC` ?
false

And what about the compound `COP(=S)(OC)Oc1cc(Cl)c(Cl)cc1Cl` ?
false

And what about the compound `Brc1ccc(Oc2cc(Br)c(Br)cc2Br)c(Br)c1` ?
false

And what about the compound `CCC(=O)O[C@H]1CC[C@H]2[C@@H]3CCC4=CC(=O)CC[C@]4(C)[C@H]3CC[C@]12C` ?
true

And what about the compound `CCCCCCOC(=O)c1ccccc1C(=O)OCCCCCC` ?
false

And what about the compound COc1ccc(C(CN(C)C)C2(O)CCCCC2)cc1 (stereo not drawn) ?
false

And what about the compound `CC(C)(OOC(C)(C)c1ccccc1)c1ccccc1` ?
false
